- test description: Cell viability, tetrazolium salt WST-1, unstimulated Jurkat cells
- Format: cell-based
- conditions: human, Jurkat (Cont), 10 nM, read-out: percentage of viability
measured endpoint: viability at 24 h, 0.01 µM

Task: Could you tell me which viability at 24 h, 0.01 µM is on file for O=C(NN1CCCCC1)C1=NN(c2ccc(Cl)cc2Cl)C(c2ccc(Cl)cc2)C1 (stereo not shown) ?
Result: 92.6%

* * *

- test description: Cell viability, tetrazolium salt WST-1, LPS treated THP-1 cells
- Type: cell-based
- conditions: human, THP-1 (LPS 5 µg/ml), 10 nM, read-out: percentage of viability
measured endpoint: viability at 18 h, 0.01 µM (%)
Provide only the numeric value, understood in %.

Task: Query: viability at 18 h, 0.01 µM; subject: O=C(NN1CCCCC1)C1=NN(c2ccc(Cl)cc2Cl)C(c2ccc(Cl)cc2)C1 (stereo not shown)
Result: 105

* * *

- Test system: cyclooxygenase-2 (COX-LUC)
- test description: COX2-LUC promoter luciferase reporter in THP-1 cells
- Type: cell-based, human
- conditions: Homo sapiens; THP-1 (LPS); approximated value; read-out: COX2-LUC IC-50
measured endpoint: pIC50
API: returns pIC50 as number; meaning -log10 of concentration in mol/L.

Cc1c(C(=O)NN2CCCCC2)nn(-c2ccc(Cl)cc2Cl)c1-c1ccc(Cl)cc1 [SR141716, reference compound]
5.22

We next turn to a different compound, shown below.
Task: What is its pIC50 for cyclooxygenase-2 (COX-LUC)? Entry: O=C(NN1CCCCC1)C1=NN(c2ccc(Cl)cc2Cl)C(c2ccc(Cl)cc2)C1 (centres unmarked)
Result: 5.70

* * *

- System: Nuclear factor (NF)-κB
- test description: NF-κB-LUC luciferase reporter, transcriptional activation in Jurkat T cells
- Assay type: cell-based, human
- conditions: Homo sapiens; Jurkat (PMA+Ion), 6 hours; approximate value; read-out: NF-κB -LUC IC-50
- Experimental: It was also analyzed how these compounds affect transcriptional induction mediated by the transcription factors Nuclear factor of activated T cells (NFAT) or Nuclear factor (NF)-κB. […]
measured endpoint: IC50 (µM)
// note: answer is a bare numeric in µM

Cc1c(C(=O)NN2CCCCC2)nn(-c2ccc(Cl)cc2Cl)c1-c1ccc(Cl)cc1 [SR141716, reference compound]
1

Pending compound:
Task: What IC50 appears in the records for this compound with Nuclear factor (NF)-κB? O=C(NN1CCCCC1)C1=NN(c2ccc(Cl)cc2Cl)C(c2ccc(Cl)cc2)C1 (centres unmarked)
Result: 7

* * *

- Test system: cyclooxygenase-2 (COX-LUC)
- test description: COX2-LUC promoter luciferase reporter in Jurkat T cells
- Type: cell-based, human
- conditions: Homo sapiens; Jurkat (PMA+Ion); approximated value; read-out: COX2-LUC IC-50
- Description: It was also analyzed how these compounds affect transcriptional induction mediated by the transcription factors Nuclear factor of activated T cells (NFAT) or Nuclear factor (NF)-κB. […]
measured endpoint: pIC50
# pIC50: negative log10 of molar concentration; output just the value

Task: Look up pIC50: O=C(NN1CCCCC1)C1=NN(c2ccc(Cl)cc2Cl)C(c2ccc(Cl)cc2)C1 (centres unmarked) [Example 1]
Result: 5.10

* * *

- System: Interleukin-2 (IL-2-LUC)
- test description: IL-2-LUC promoter luciferase reporter in Jurkat T cells
- Type: cell-based, human
- conditions: Homo sapiens; Jurkat (PMA+Ion); approximated value; read-out: IL-2-LUC IC-50
measured endpoint: IC50 (nM)
// note: answer is a bare numeric in nM

Cc1c(C(=O)NN2CCCCC2)nn(-c2ccc(Cl)cc2Cl)c1-c1ccc(Cl)cc1 [SR141716, reference compound]
100

Attention now turns to another entry.
Task: # lookup: IC50 of O=C(NN1CCCCC1)C1=NN(c2ccc(Cl)cc2Cl)C(c2ccc(Cl)cc2)C1 (centres unmarked)
Result: 1000
